I'd appreciate it if you could supply pIC50 values for the items below.
Molecular target: recombinant CD73 (Homo sapiens (Human))
Assay: Inhibition of the CD73 enzyme in vitro (soluble recombinant CD73, Malachite Green)
Details: recombinant CD73 0.5 nM, AMP 50 μM, 30 minutes at room temperature
Expect pIC50 as a plain number equal to -log10 of the molar concentration.

Sample `Nc1nc(Cl)nc2c1ncn2[C@@H]1O[C@H](COC(Cc2ccc(C(=O)O)cc2)(C(=O)O)C(=O)O)[C@@H](O)[C@@H]1F` — what was its pIC50?
6.92

Similarly, `Cn1nc(CC(OC[C@H]2O[C@@H](n3cnc4c(N)nc(Cl)nc43)[C@@H](F)[C@@H]2O)(C(=O)O)C(=O)O)cc1C(=O)O` ?
5.06

Similarly, `COC(=O)c1ccc(CC(OC[C@H]2O[C@@H](n3cnc4c(N)nc(Cl)nc43)[C@@H](F)[C@@H]2O)(C(=O)O)C(=O)O)cc1` ?
6.49

* * *

Target: endogenous, cell-bound CD73 on SK-MEL-28 cells (Homo sapiens (Human), UniProt P21589)
Sequence (P21589 27-574): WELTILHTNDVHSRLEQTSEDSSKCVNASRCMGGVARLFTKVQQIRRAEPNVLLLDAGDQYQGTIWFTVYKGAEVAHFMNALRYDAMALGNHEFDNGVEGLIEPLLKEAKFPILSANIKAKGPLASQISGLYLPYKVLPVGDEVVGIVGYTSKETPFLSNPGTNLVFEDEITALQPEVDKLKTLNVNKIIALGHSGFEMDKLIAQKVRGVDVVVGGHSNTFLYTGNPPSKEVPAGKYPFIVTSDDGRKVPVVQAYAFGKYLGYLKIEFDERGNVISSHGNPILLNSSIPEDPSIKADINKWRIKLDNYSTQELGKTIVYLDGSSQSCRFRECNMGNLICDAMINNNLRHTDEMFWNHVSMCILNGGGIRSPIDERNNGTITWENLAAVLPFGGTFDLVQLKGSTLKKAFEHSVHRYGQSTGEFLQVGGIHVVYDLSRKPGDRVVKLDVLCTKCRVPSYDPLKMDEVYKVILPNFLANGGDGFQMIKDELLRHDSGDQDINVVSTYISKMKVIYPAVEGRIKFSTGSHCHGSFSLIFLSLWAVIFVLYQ
Assay: Inhibition of endogenous, cell-bound CD73 enzyme activity in SK-MEL-28 cells (Malachite Green)
Conditions: 100 μM AMP, 30 minutes at room temperature
pIC50: −log10 of the molar value.
The label depends only on pIC50: rule met if it is at least 6, rule not met if it is smaller.

Is reported pIC50 greater than or equal to 6 here: Nc1nc(Cl)nc2c1ncn2[C@@H]1O[C@H](COC(Cc2ccc(C(F)(F)F)c(F)c2)(C(=O)O)C(=O)O)[C@@H](O)[C@@H]1F [compound 60]
rule met

Similarly, CC(C)(C)OC(=O)Nc1nc(N=[N+]=[N-])nc2c1ncn2[C@@H]1O[C@H](COC(Cc2cccc(C#N)c2)(C(=O)O)C(=O)O)[C@@H](O)[C@@H]1F [compound 41] ?
rule not met

Similarly, Nc1nc(Cl)nc2c1ncn2[C@@H]1O[C@H](COC(Cc2ccccc2)(C(=O)O)C(=O)O)[C@@H](O)[C@@H]1F [compound 6] ?
rule met

Similarly, N#Cc1cccc(CC(OC[C@H]2O[C@@H](n3cnc4c(N)nc(N=[N+]=[N-])nc43)[C@@H](F)[C@@H]2O)(C(=O)O)C(=O)O)c1 [compound 40] ?
rule not met

Similarly, Nc1nc(Cl)nc2c1ncn2[C@@H]1O[C@H](COC(Cc2ccc3oc(C(=O)O)cc3c2)(C(=O)O)C(=O)O)[C@@H](O)[C@@H]1F [compound 88] ?
rule met

Similarly, N#Cc1cccc(CC(OC[C@H]2O[C@@H](n3cnc4c(N)nc(Cl)nc43)[C@@H](F)[C@@H]2O)(C(=O)O)C(=O)O)c1 [compound 35] ?
rule met

Similarly, Nc1nc(Cl)nc2c1ncn2[C@@H]1O[C@H](COC(Cc2cnn(Cc3ccccc3)c2)(C(=O)O)C(=O)O)[C@@H](O)[C@@H]1F [compound 63] ?
rule not met

Similarly, Nc1nc(Cl)nc2c1ncn2[C@@H]1O[C@H](COC(Cc2ccc3ccccc3c2)(C(=O)O)C(=O)O)[C@@H](O)[C@@H]1F [compound 17] ?
rule not met

* * *

Target: endogenous, cell-bound CD73 on SK-MEL-28 cells (Homo sapiens (Human), UniProt P21589)
Assay: Inhibition of endogenous, cell-bound CD73 enzyme activity in SK-MEL-28 cells (Malachite Green)
Conditions: 100 μM AMP, 30 minutes at room temperature
experimental.endpoint: log10(IC50) (log10 of the value in nM)
Scale: decimal log of IC50, IC50 in nM.

Sample `Nc1nc(Cl)nc2c1ncn2[C@@H]1O[C@H](COC(Cc2cccc(O)c2)(C(=O)O)C(=O)O)[C@@H](O)[C@@H]1F` — what was its log10(IC50)?
3.10

Similarly, `Nc1nc(Cl)nc2c1ncn2[C@@H]1O[C@H](COC(Cc2csc(C(=O)O)n2)(C(=O)O)C(=O)O)[C@@H](O)[C@@H]1F` ?
2.97

Similarly, `COc1ccc(CC(OC[C@H]2O[C@@H](n3cnc4c(N)nc(Cl)nc43)[C@@H](F)[C@@H]2O)(C(=O)O)C(=O)O)cc1Cl` ?
3.14

Similarly, COC(=O)C(Cc1ccc(-c2ccccc2)cc1)(OC[C@H]1O[C@@H](n2cnc3c(N)nc(Cl)nc32)[C@@H](F)[C@@H]1O)C(=O)O (single isomer, unassigned) [compound 82] ?
3.61

Similarly, `Nc1nc(Cl)nc2c1ncn2[C@@H]1O[C@H](COC(Cc2ccc(OC(F)(F)F)cc2)(C(=O)O)C(=O)O)[C@@H](O)[C@@H]1F` ?
2.29

Similarly, `Nc1nc(Cl)nc2c1ncn2[C@@H]1O[C@H](COC(Cc2ccc(C(=O)NCCC(=O)O)cc2)(C(=O)O)C(=O)O)[C@@H](O)[C@@H]1F` ?
2.74

* * *

Target: endogenous, cell-bound CD73 on SK-MEL-28 cells (Homo sapiens (Human), UniProt P21589)
Assay: Inhibition of endogenous, cell-bound CD73 enzyme activity in SK-MEL-28 cells (Malachite Green)
Conditions: 100 μM AMP, 30 minutes at room temperature
I'd appreciate it if you could supply pIC50 values for the items below.
Expect pIC50 as a plain number equal to -log10 of the molar concentration.

For endogenous, cell-bound CD73 on SK-MEL-28 cells (Homo sapiens (Human), UniProt P21589), provide pIC50 of `Nc1nc(Cl)nc2c1ncn2[C@@H]1O[C@H](COC(Cc2cccc(Oc3ccccc3)c2)(C(=O)O)C(=O)O)[C@@H](O)[C@@H]1F` please.
5.66

Similarly, `Nc1nc(Cl)nc2c1ncn2[C@@H]1O[C@H](COC(Cc2csc(C(=O)O)c2)(C(=O)O)C(=O)O)[C@@H](O)[C@@H]1F` ?
6.52

Similarly, `Nc1nc(Cl)nc2c1ncn2[C@@H]1O[C@H](COC(Cc2ccc(C(F)(F)F)o2)(C(=O)O)C(=O)O)[C@@H](O)[C@@H]1F` ?
5.16

Similarly, COC(=O)C(Cc1ccc(-c2ccccc2)cc1)(OC[C@H]1O[C@@H](n2cnc3c(N)nc(Cl)nc32)[C@@H](F)[C@@H]1O)C(=O)O (single isomer, unassigned) [compound 81] ?
5.68

Similarly, `Nc1cccc(CC(OC[C@H]2O[C@@H](n3cnc4c(N)nc(Cl)nc43)[C@@H](F)[C@@H]2O)(C(=O)O)C(=O)O)c1` ?
6.05

Similarly, `Nc1nc(Cl)nc2c1ncn2[C@@H]1O[C@H](COC(Cc2ccc(-c3ccccc3)cc2)(C(=O)O)C(=O)O)[C@@H](O)[C@@H]1F` ?
6.79

* * *

I'd appreciate it if you could supply pIC50 values for the items below.
Target: endogenous, cell-bound CD73 on SK-MEL-28 cells (Homo sapiens (Human), UniProt P21589)
Assay: Inhibition of endogenous, cell-bound CD73 enzyme activity in SK-MEL-28 cells (Malachite Green)
Settings: 100 μM AMP, 30 minutes at room temperature
Expect pIC50 as a plain number equal to -log10 of the molar concentration.

Sample `Nc1nc(Cl)nc2c1ncn2[C@@H]1O[C@H](COC(Cc2ccc(C(=O)O)cc2)(C(=O)O)C(=O)O)[C@@H](O)[C@@H]1F` — what was its pIC50?
6.59

Similarly, `Nc1nc(Cl)nc2c1ncn2[C@@H]1O[C@H](COC(Cc2cccc(-c3nnn[nH]3)c2)(C(=O)O)C(=O)O)[C@@H](O)[C@@H]1F` ?
5.59

Similarly, `CS(=O)(=O)c1ccc(CC(OC[C@H]2O[C@@H](n3cnc4c(N)nc(Cl)nc43)[C@@H](F)[C@@H]2O)(C(=O)O)C(=O)O)cc1` ?
6.29

Similarly, `Nc1nc(Cl)nc2c1ncn2[C@@H]1O[C@H](COC(Cc2ccc(OCC(F)(F)F)cc2)(C(=O)O)C(=O)O)[C@@H](O)[C@@H]1F` ?
7.15

Similarly, `Nc1nc(Cl)nc2c1ncn2[C@@H]1O[C@H](COC(Cc2ccc(S(N)(=O)=O)cc2)(C(=O)O)C(=O)O)[C@@H](O)[C@@H]1F` ?
6.20

Similarly, `Nc1nc(Cl)nc2c1ncn2[C@@H]1O[C@H](COC(Cc2cnc(C(=O)O)s2)(C(=O)O)C(=O)O)[C@@H](O)[C@@H]1F` ?
5.88

* * *

Molecular target: endogenous, cell-bound CD73 on SK-MEL-28 cells (Homo sapiens (Human), UniProt P21589)
Assay: Inhibition of endogenous, cell-bound CD73 enzyme activity in SK-MEL-28 cells (Malachite Green)
Format: cell-based
Conditions: 100 μM AMP, 30 minutes at room temperature
experimental.endpoint: IC50 (nM)
Numeric answer only, unit nM assumed.

For endogenous, cell-bound CD73 on SK-MEL-28 cells (Homo sapiens (Human), UniProt P21589), provide IC50 of CNC(=O)C(OC[C@H]1O[C@@H](n2cnc3c(N)nc(Cl)nc32)[C@@H](F)[C@@H]1O)P(=O)(O)O (stereo partly drawn) please.
5720

Similarly, `Nc1nc(Cl)nc2c1ncn2[C@@H]1O[C@H](COC(Cc2ccc(OCC(=O)O)cc2)(C(=O)O)C(=O)O)[C@@H](O)[C@@H]1F` ?
202

Similarly, `Nc1nc(Cl)nc2c1ncn2[C@@H]1O[C@H](COC(Cc2ccc(F)cc2)(C(=O)O)C(=O)O)[C@@H](O)[C@@H]1F` ?
669
